# assayed_target: T1, SARS-COV-2 RBD (SARS-COV-2, UniProt P0DTC2 319-539)
# T1 construct: also called WT RBD
# experiment: ELISA, RBD coated
Overview of recorded EC50 for various binders
measure: EC50 (ng/mL)

INSERT INTO results (binder, test_value) VALUES
  ('C888 (antibody, V domains shown, IgG; V domains only) VH: EVQLVESGGGLVQPGGSLRLSCAASGFTVSSNYMSWVRQAPGKGLEWVSVIYSGGSAYYADSVKGRFTISRDNSKNTLYLQMNSLRAEDTAVYYCARDLRDQDGYSYGAFDYWGQGTLVTVSS VL: QSALTQPASVSGSPGQSITISCTGTSSDVGGYNYVSWYQQHPGKAPKLMIYDVSNRPSGVSNRFSGSKSGNTASLTISGLQAEDEADYYCSSYTSSSSWVFGGGTKLTVL', 1.44),
  ('C872 (antibody, V domains shown, IgG; V domains only) VH: EVQLVESGGGLIQPGGSLRLSCAASGFIVSNNYISWVRQAPGKGLEWVSVIYSGGTTYYADSVKGRFSISRDTSKNTVYLQINNLRAEDTAVYYCAREGDVDGNYGFWSGYSRDRYYFDYWGQGTLVTVSS VL: QSALTQPASVSGSPGQSITISCTGTSSDVGAYNYVAWYQQHPGKAPKLMVYDVSKRPSGVSNRFSGSKSGNTASLTISGLQTEDEGDYYCCSYTTNTTRVFGTGTMLTVL', 2.19),
  ('C853 (antibody, V domains shown, IgG; V domains only) VH: QVQLQESGPGLVKASQTLSLTCTVSGGSFRSGGYYYNWIRQHPGKGLEWIGYIFYTGVTYYNPSLKSRVSISVDTSKNQLSLNLTSVTAADTAVYYCARGSYSDYNGGWDYWGRGTLVTVS VL: QSALTQPPSASGSPGQSVTISCIGTSSDVGGYNYVSWYQHHPGKAPKLIIYEVSKRPSGVPDRFSGSKSGNTASLTVSGLQADDEADYYCSSYAGSNNWVFGGGTKLTV', 2.3),
  ('C993 (antibody, V domains shown, IgG; V domains only) VH: EVQLLESGGGLVQPGGSLRLSCAASGFPFSIYAMSWVRQAPGKGLEWVSGMRGTTGTTYYADSVKGRFAISRDNSKNMLHLQMNSLRAEDTAVYYCAKSDHGDYVIGAFDIWGQGTMVTVSS VL: QSALTQPPSASGSPGQSVTISCTGTSGDVGGYNYVSWYQQHPGKAPKLMIYEVSKRPSGVPDRFSGSKSGNTASLTVSGLQAEDEADYYCNSYAGSNNWVFGGGTKLTVL', 2.29),
  ('C965 (antibody, V domains shown, IgG; V domains only) VH: EVQLVESGGGLVKPGRSLRLSCSASGFTFGDYAMTWFRQAPGKGLQWVGFIRSKPFGGTTQYAASVKGRFTISRDDSNNVAYLQMNSLKTEDTGVYYCTRLRQVQGVPGYYFDQWGQGALVTVSS VL: EIVMTQSPATLSVSPGERATLSCRASQSVSSNLAWYQQKPGQAPRLLIYGASIRATGIPARFSGSGSGTEFTLTISSLQSEDFVVYYCQEYDNWFAFGGGTKVEIK', 1.69);
